test: Pharmacokinetics after intravenous injection or oral administration in mice; type: in vivo; settings: mouse, plasma; CD-1 mice, oral administration, 5 mg/kg; read-out: Blood drug concentration Cmax
observed.property: Cmax (ng/mL)

INSERT INTO results (given_smiles, observed_property, endpoint_value) VALUES
  ('CC(C)(O)Cn1nnc2cc(-c3c(-c4ccc(C#N)c(F)c4)nc4c(N5[C@@H]6CC[C@H]5[C@@H](N)C6)nccn34)c(F)cc21', 'Cmax', 648);

* * *

molecular target: LSD1 (Homo sapiens (Human))
observed.property: log10 IC50 (log10 of the value in nM)

INSERT INTO assay_data (molecule, observed_property, endpoint_value) VALUES
  ('Cn1cc2cc(-c3c(-c4ccc(C#N)c(F)c4)nc4c(N5CCC[C@@H](N)C5)nccn34)ccc2n1', 'log10 IC50', 0.80),
  ('COc1ccc(-c2c(-c3ccc(C#N)c(F)c3)nc3c(NCC4CCCN4)nccn23)cc1F (stereo not shown)', 'log10 IC50', 1.65),
  ('COc1ccc(-c2c(-c3ccc(C#N)c(F)c3)nc3c(N[C@@H]4CC[C@@H](N)C4)nccn23)cc1F (relative stereo)', 'log10 IC50', 1.04),
  ('N#Cc1ccc(-c2nc3c(N4CCC[C@@H](N)C4)nccn3c2-c2cnn(CC(F)(F)F)c2)cc1F', 'log10 IC50', 0.88),
  ('Cn1ncc2cc(-c3c(-c4ccc(C#N)c(F)c4)nc4c(N5CCC[C@@H](N)C5)nccn34)ccc21 [Compound 5]', 'log10 IC50', 0.36),
  ('CC(C)(O)Cn1nnc2cc(-c3c(-c4ccc(C#N)c(F)c4)nc4c(N5[C@@H]6CC[C@H]5[C@@H](N)C6)nccn34)c(F)cc21', 'log10 IC50', 0.00),
  ('CC(C)(O)Cn1nnc2cc(-c3c(-c4ccc(C#N)c(F)c4)nc4c(N5CCC[C@@H](N)C5)nccn34)c(F)cc21', 'log10 IC50', 0.20),
  ('CC(C)(O)Cn1nnc2cc(-c3c(-c4ccc(C#N)c(F)c4)nc4c(N5CCC[C@H](N)C5)nccn34)c(F)cc21', 'log10 IC50', 0.64),
  ('CC(C)(O)Cc1ccc(-c2c(-c3ccc(C#N)c(F)c3)nc3c(N4CCC[C@@H](N)C4)nccn23)c(F)c1', 'log10 IC50', 0.40),
  ('CCC(O)(CC)Cn1nnc2cc(-c3c(-c4ccc(C#N)c(F)c4)nc4c(N5CCC[C@H](N)C5)nccn34)c(F)cc21', 'log10 IC50', -0.15),
  ('CC(C)(O)Cn1cc2cc(-c3c(-c4ccc(C#N)c(F)c4)nc4c(N5CCC[C@@H](N)C5)nccn34)c(F)cc2n1', 'log10 IC50', 0.36),
  ('CC(C)(O)Cn1nnc2cc(-c3c(-c4ccc(C#N)c(F)c4)nc4c(N5CCC[C@@H](N)C5)nccn34)ccc21', 'log10 IC50', 0.41),
  ('Cn1ncc2cc(-c3c(-c4ccc(C#N)c(F)c4)nc4c(N5CCC[C@@H](N)C5)nccn34)ccc21 [Compound 8]', 'log10 IC50', 0.23),
  ('CC(C)(O)Cn1ncc2cc(-c3c(-c4ccc(C#N)c(F)c4)nc4c(N5CCC[C@@H](N)C5)nccn34)c(F)cc21', 'log10 IC50', -0.15),
  ('Cn1nnc2cc(-c3c(-c4ccc(C#N)c(F)c4)nc4c(N5CCC[C@@H](N)C5)nccn34)c(F)cc21', 'log10 IC50', 0.00),
  ('COc1ccc(-c2c(-c3ccc(C#N)c(F)c3)nc3c(N4CCC(N)CC4)nccn23)cc1F', 'log10 IC50', 0.87);
